# Assayed Target: BuChE (UniProt P81908)
# Construct: 120 min incubation; BuChE IC50
# Type: biochemical, human or equine serum
# Test Conditions: read-out: IC50 BuChE 120 min; Table 3; 120 min incubation
Where a name gives a salt, the structure may show the parent alone.
// pIC50 lookup, one value per entry
API: returns pIC50 as number; meaning -log10 of concentration in mol/L.

See these solved cases before continuing.
- Molecule: "CCCCN(C)C(=O)Oc1ccc2c(c1)NCC2CCC(=O)OC (stereo not shown) [AN-677, hydrochloride]"
  pIC50: 3.39
- Molecule: "COc1ccc(N(C)C(=O)Oc2cccc3c2C(CCC(=O)O)CN3)cc1 (stereo not shown) [AN-821, hydrochloride]"
  pIC50: 3.38
- Molecule: "CCN(C)C(=O)Oc1cccc2c1C(CCC(N)=O)CN2 (stereo not shown) [AN-851, hydrochloride]"
  pIC50: 5.07

input: Output pIC50 of COC(=O)CCC1CNc2cc(OC(=O)N(C)c3ccc(OC)cc3)ccc21 (stereo not shown) [AN-685, hydrochloride]
output: 4.27

* * *

# Assayed Target: AChE (UniProt P23795)
# Sequence (P23795 1-613): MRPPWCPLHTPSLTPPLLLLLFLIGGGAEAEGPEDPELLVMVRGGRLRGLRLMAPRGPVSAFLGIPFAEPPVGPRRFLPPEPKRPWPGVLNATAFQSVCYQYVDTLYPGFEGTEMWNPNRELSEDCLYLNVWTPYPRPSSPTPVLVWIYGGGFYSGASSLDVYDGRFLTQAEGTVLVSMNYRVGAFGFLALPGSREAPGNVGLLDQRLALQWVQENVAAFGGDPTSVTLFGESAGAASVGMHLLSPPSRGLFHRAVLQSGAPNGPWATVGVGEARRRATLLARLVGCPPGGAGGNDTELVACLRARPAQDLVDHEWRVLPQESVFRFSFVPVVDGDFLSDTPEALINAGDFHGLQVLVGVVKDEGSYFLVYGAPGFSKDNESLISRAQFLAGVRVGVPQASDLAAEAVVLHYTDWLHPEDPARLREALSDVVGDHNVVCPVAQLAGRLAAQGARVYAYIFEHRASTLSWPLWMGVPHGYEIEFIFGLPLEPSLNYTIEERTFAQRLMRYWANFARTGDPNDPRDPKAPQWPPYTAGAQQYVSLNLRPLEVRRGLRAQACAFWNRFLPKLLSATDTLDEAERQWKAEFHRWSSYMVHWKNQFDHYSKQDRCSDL
# Assay type: biochemical, human or bovine erythrocytes
Quantity Kind: pIC50
API: returns pIC50 as number; meaning -log10 of concentration in mol/L.

input: Enter measured pIC50, system AChE (UniProt P23795), for the molecule shown: CN(C)C(=O)Oc1cccc2ccn(C)c12
output: 6.48

* * *

// melting point lookup, one value per entry
Structures can show the parent of a compound that is named as a salt.

See these solved cases before continuing.
- Compound: "COc1ccc(N(C)C(=O)Oc2cccc3[nH]cc(C=O)c23)cc1"
  Quantity Kind: "melting point"
  Readout Value: "173 to 175 °C"
- Compound: "CCN(C)C(=O)Oc1ccc2c(/C=C/C(=O)OC)c[nH]c2c1"
  Quantity Kind: "melting point"
  Readout Value: "142 to 145 °C"
- Compound: "CCN(C)C(=O)Oc1cccc2c1c(C=O)cn2C"
  Quantity Kind: "melting point"
  Readout Value: "85 to 88 °C"
- Compound: "COC(=O)CCc1cn(C)c2cc(O)ccc12"
  Quantity Kind: "melting point"
  Readout Value: "35 to 40 °C"
- Compound: "CCN(C)C(=O)Oc1ccc2c(CCC(=O)O)c[nH]c2c1"
  Quantity Kind: "melting point"
  Readout Value: "132 to 136 °C"
- Compound: "COC(=O)CCC1CN(C)c2cc(O)ccc21 (centres unmarked) (as salt: hydrochloride)"
  Quantity Kind: "melting point"
  Readout Value: "104 to 108 °C"

input: Output melting point of COC(=O)/C=C/c1c[nH]c2cc(O)ccc12
output: 195 to 200 °C

* * *

# Assayed Target: BuChE (UniProt P81908)
# Construct: 120 min incubation; BuChE IC50
# Assay type: biochemical, human or equine serum
# Test Conditions: read-out: BuChE IC50; most potent BuChE inhibitors
Structures can show the parent of a compound that is named as a salt.
Quantity Kind: pIC50
API: returns pIC50 as number; meaning -log10 of concentration in mol/L.

input: Output pIC50 of CCN(C)C(=O)Oc1cccc2c1NCC2CCC(=O)OC (stereo not shown) [AN-852, hydrochloride]
output: 7.10

* * *

// melting point lookup, one value per entry

- Structure String: "O=C(O)CCc1c[nH]c2cccc(O)c12"
  Readout Value: "118 to 120 °C"
- Structure String: "COc1ccc(N(C)C(=O)Oc2ccc3c(C=O)c[nH]c3c2)cc1"
  Readout Value: "218 to 220 °C"
- Structure String: "CCCCN(C)C(=O)Oc1ccc2c(C=O)cn(C)c2c1"
  Readout Value: "90 to 95 °C"
- Structure String: "CCN(C)C(=O)Oc1ccc2c(C=O)cn(C)c2c1"
  Readout Value: "124 to 128 °C"
- Structure String: "CCN(C)C(=O)Oc1ccc2cc[nH]c2c1"
  Readout Value: "105 to 108 °C"
- Structure String: "Cn1cc(CCC(=O)O)c2ccc(O)cc21"
  Readout Value: "157 to 161 °C"
- Structure String: "COC(=O)/C=C/c1c[nH]c2cccc(OC(=O)N(C)c3ccc(OC)cc3)c12"
  Readout Value: "155 to 157 °C"
- Structure String: "CCN(C)C(=O)Oc1cccc2[nH]cc(CCC(N)=O)c12"
  Readout Value: "64 to 66 °C"

From here, focus on the item given below.
input: Output melting point of CCN(C)C(=O)Oc1cccc2c(CCC(=O)O)c[nH]c12
output: 98 to 101 °C

* * *

# Assayed Target: AChE (UniProt P23795)
# Format: biochemical, human or bovine erythrocytes
# Test Conditions: read-out: IC50 AChE 120 min
Quantity Kind: pIC50
API: returns pIC50 as number; meaning -log10 of concentration in mol/L.

input: Enter measured pIC50, system AChE (UniProt P23795), for the compound shown: CCN(C)C(=O)Oc1ccc2c(CCCN)c[nH]c2c1.Cl
output: 4.62

* * *

// melting point lookup, one value per entry

- Structure String: "CCN(C)C(=O)Oc1cccc2c1ccn2C"
  Quantity Kind: "melting point"
  Readout Value: "42 to 45 °C"
- Structure String: "CCN(C)C(=O)Oc1ccc2c(C=O)c[nH]c2c1"
  Quantity Kind: "melting point"
  Readout Value: "170 to 175 °C"
- Structure String: "CCOC(=O)CCc1c[nH]c2cccc(OC(=O)N(C)CC)c12"
  Quantity Kind: "melting point"
  Readout Value: "85 to 87 °C"

From here, focus on the item given below.
input: Output melting point of CCCCN(C)C(=O)Oc1ccc2c(/C=C/C(=O)OC)cn(C)c2c1
output: 65 to 70 °C

* * *

// melting point lookup, one value per entry

See these solved cases before continuing.
- Structure String: "COC(=O)/C=C/c1cn(C)c2cc(OC(=O)N(C)c3ccc(OC)cc3)ccc12"
  melting point: "120 to 125 °C"
- Structure String: "CCN(C)C(=O)Oc1cccc2[nH]cc(/C=C/C(=O)O)c12"
  melting point: "164 to 166 °C"
- Structure String: "COC(=O)CCc1cn(C)c2cccc(OC(=O)N(C)c3ccc(OC)cc3)c12"
  melting point: "110 to 112 °C"

input: Output melting point of CCCCN(C)C(=O)Oc1ccc2cc[nH]c2c1
output: 84 to 87 °C

input: Output melting point of COC(=O)CCc1c[nH]c2cccc(O)c12
output: 93 to 95 °C

input: Output melting point of COC(=O)/C=C/c1c[nH]c2cccc(OCc3ccccc3)c12
output: 153 to 156 °C

* * *

Quantity Kind: melting point

See these solved cases before continuing.
- Structure String: "CCN(C)C(=O)Oc1cccc2[nH]cc(/C=C/C(=O)OC)c12"
  Quantity Kind: "melting point"
  Readout Value: "128 to 131 °C"
- Structure String: "COC(=O)/C=C/c1cn(C)c2cc(OCc3ccccc3)ccc12"
  Quantity Kind: "melting point"
  Readout Value: "150 to 155 °C"
- Structure String: "COc1ccc(N(C)C(=O)Oc2ccc3c(C=O)cn(C)c3c2)cc1"
  Quantity Kind: "melting point"
  Readout Value: "110 to 115 °C"
- Structure String: "CCN(C)C(=O)Oc1ccc2c(CCC(=O)OC)cn(C)c2c1"
  Quantity Kind: "melting point"
  Readout Value: "49 to 52 °C"
- Structure String: "COC(=O)CCc1cn(C)c2cccc(O)c12"
  Quantity Kind: "melting point"
  Readout Value: "123 to 124 °C"

input: Output melting point of CCN(C)C(=O)Oc1ccc2ccn(CCC(=O)OC)c2c1
output: 94 to 96 °C

input: Output melting point of COC(=O)/C=C/c1cn(C)c2cccc(OCc3ccccc3)c12
output: 122 to 125 °C

input: Output melting point of COc1ccc(N(C)C(=O)Oc2cccc3[nH]cc(CCC(=O)O)c23)cc1
output: 194 to 196 °C

input: Output melting point of CCCCN(C)C(=O)Oc1cccc2[nH]ccc12
output: 86 to 89 °C

input: Output melting point of COC(=O)CCc1c[nH]c2c(O)cccc12
output: 89 to 94 °C
